Collected pest or weed control at 70 g/ha values appear next to each entry.
Test system: KCHSC: kochia (Kochia scoparia)
Assay: Post-emergent Test III, herbicidal activity in wheat and barley
Type: in vivo
Details: Bassia scoparia, post-emergence, 504 h; 70 g ai/ha; 21 days after application; read-out: Visual Gorowth Reduction (%) 21 days After Application KCHSC
METRIC NAME: pest or weed control at 70 g/ha

1) Nc1c(F)c(-c2ccc(I)c(F)c2)nc(C(=O)O)c1Cl [Compound 157]: 85 to 94%
2) COC(=O)c1nc(-c2ccc(Br)c(F)c2F)nc(N)c1OC [Compound 122]: 95 to 100%
3) Nc1c(F)c(-c2ccc(I)c(F)c2F)nc(C(=O)O)c1Cl [Compound 141]: 85 to 94%
4) Nc1c(F)c(-c2ccc(Br)cc2F)nc(C(=O)O)c1Cl [Compound 163]: 85 to 94%
5) C=Cc1c(C(=O)O)nc(-c2ccc(C(F)(F)F)c(F)c2)c(F)c1N [Compound 86]: 75 to 84%
6) Nc1c(F)c(-c2ccc(Br)c(F)c2)nc(C(=O)O)c1Cl [Compound 21]: 95 to 100%
